experimental parameters: in cyclohexane, 288.15 K

>  <compound>
OCc1ccc(O[C@@H]2O[C@H](CO)[C@@H](O)[C@H](O)[C@H]2O)cc1

>  <solubility (mole fraction)>
0.00125

$$$$

* * *

experimental parameters: in 1,4-dioxane, 308.15 K

>  <compound>
OCc1ccc(O[C@@H]2O[C@H](CO)[C@@H](O)[C@H](O)[C@H]2O)cc1

>  <solubility (mole fraction)>
0.00562

$$$$

* * *

experimental parameters: in ethanol, 283.15 K
observation type: solubility (mole fraction)

>  <compound>
OCc1ccc(O[C@@H]2O[C@H](CO)[C@@H](O)[C@H](O)[C@H]2O)cc1

>  <recorded number>
0.00129

$$$$

* * *

experimental parameters: in ethyl acetate, 313.15 K

>  <compound>
OCc1ccc(O[C@@H]2O[C@H](CO)[C@@H](O)[C@H](O)[C@H]2O)cc1

>  <solubility (mole fraction)>
0.00543

$$$$

* * *

experimental parameters: in ethyl acetate, 308.15 K

>  <compound>
OCc1ccc(O[C@@H]2O[C@H](CO)[C@@H](O)[C@H](O)[C@H]2O)cc1

>  <solubility (mole fraction)>
0.00481

$$$$

* * *

experimental parameters: in n-propanol, 308.15 K

>  <compound>
OCc1ccc(O[C@@H]2O[C@H](CO)[C@@H](O)[C@H](O)[C@H]2O)cc1

>  <solubility (mole fraction)>
0.00262

$$$$

* * *

experimental parameters: in isopropanol, 298.15 K

>  <compound>
OCc1ccc(O[C@@H]2O[C@H](CO)[C@@H](O)[C@H](O)[C@H]2O)cc1

>  <solubility (mole fraction)>
0.00271

$$$$

* * *

experimental parameters: in acetone, 313.15 K
observation type: solubility (mole fraction)

>  <compound>
OCc1ccc(O[C@@H]2O[C@H](CO)[C@@H](O)[C@H](O)[C@H]2O)cc1

>  <recorded number>
0.00368

$$$$

* * *

experimental parameters: in acetonitrile, 308.15 K

>  <compound>
OCc1ccc(O[C@@H]2O[C@H](CO)[C@@H](O)[C@H](O)[C@H]2O)cc1

>  <solubility (mole fraction)>
0.00166

$$$$

* * *

experimental parameters: in ethanol, 288.15 K
observation type: solubility (mole fraction)

>  <compound>
OCc1ccc(O[C@@H]2O[C@H](CO)[C@@H](O)[C@H](O)[C@H]2O)cc1

>  <observation type>
solubility (mole fraction)

>  <result>
0.00157

$$$$

* * *

experimental parameters: in n-propanol, 293.15 K
observation type: solubility (mole fraction)

>  <compound>
OCc1ccc(O[C@@H]2O[C@H](CO)[C@@H](O)[C@H](O)[C@H]2O)cc1

>  <recorded number>
0.00165

$$$$

* * *

experimental parameters: in n-butanol, 288.15 K

>  <compound>
OCc1ccc(O[C@@H]2O[C@H](CO)[C@@H](O)[C@H](O)[C@H]2O)cc1

>  <solubility (mole fraction)>
0.0454

$$$$

* * *

experimental parameters: in ethyl acetate, 283.15 K
observation type: solubility (mole fraction)

>  <compound>
OCc1ccc(O[C@@H]2O[C@H](CO)[C@@H](O)[C@H](O)[C@H]2O)cc1

>  <observation type>
solubility (mole fraction)

>  <recorded number>
0.00234

$$$$

* * *

experimental parameters: in cyclohexane, 273.15 K
observation type: solubility (mole fraction)

>  <compound>
OCc1ccc(O[C@@H]2O[C@H](CO)[C@@H](O)[C@H](O)[C@H]2O)cc1

>  <recorded number>
0.000383

$$$$

All figures here come from BigSolDB 2.1.
